- experimental target: rat NR1/NR2B receptor (Rattus norvegicus (Rat), UniProt P35439+Q00960)
- Sequence (Q00960 27-1482, other chains not shown): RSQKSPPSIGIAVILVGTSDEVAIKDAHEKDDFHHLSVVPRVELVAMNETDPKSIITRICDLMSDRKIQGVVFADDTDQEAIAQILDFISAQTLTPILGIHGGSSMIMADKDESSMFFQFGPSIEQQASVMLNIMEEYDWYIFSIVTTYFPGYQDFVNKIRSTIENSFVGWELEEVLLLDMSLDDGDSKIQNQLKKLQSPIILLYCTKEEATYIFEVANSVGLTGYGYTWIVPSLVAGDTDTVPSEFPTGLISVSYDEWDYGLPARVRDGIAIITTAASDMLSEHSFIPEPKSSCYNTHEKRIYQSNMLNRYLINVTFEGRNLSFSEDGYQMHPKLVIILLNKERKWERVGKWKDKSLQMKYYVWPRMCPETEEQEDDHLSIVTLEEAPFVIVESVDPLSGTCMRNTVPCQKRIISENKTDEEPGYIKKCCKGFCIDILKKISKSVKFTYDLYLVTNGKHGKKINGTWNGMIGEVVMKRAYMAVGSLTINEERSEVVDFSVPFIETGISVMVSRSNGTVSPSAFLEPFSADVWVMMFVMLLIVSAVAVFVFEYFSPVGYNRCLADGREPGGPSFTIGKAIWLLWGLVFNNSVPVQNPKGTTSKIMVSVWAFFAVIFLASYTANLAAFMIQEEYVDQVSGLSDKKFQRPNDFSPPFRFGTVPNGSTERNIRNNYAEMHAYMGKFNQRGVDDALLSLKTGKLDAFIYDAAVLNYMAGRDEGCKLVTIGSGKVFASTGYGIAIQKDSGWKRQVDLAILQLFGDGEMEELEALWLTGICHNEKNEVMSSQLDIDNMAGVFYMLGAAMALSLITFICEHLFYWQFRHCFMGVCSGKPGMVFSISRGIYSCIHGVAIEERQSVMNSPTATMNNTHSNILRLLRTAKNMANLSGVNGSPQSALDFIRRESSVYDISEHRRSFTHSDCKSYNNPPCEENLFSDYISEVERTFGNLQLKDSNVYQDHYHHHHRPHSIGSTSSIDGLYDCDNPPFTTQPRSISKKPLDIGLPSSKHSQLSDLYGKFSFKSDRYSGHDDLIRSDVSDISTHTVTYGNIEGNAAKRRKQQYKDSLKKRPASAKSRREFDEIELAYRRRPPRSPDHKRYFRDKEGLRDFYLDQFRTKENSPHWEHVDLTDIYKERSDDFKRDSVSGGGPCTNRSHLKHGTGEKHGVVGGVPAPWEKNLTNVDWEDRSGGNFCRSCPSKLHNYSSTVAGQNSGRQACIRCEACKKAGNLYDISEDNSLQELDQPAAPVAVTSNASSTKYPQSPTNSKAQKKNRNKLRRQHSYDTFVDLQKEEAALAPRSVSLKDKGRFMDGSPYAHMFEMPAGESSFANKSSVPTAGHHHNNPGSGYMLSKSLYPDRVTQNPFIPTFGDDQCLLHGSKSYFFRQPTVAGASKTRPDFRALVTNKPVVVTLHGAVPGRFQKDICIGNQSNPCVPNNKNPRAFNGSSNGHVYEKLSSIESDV
- assay overview: RRNR2BB: inhibition of specific binding to the rat NR1/NR2B receptor
- experimental conditions: [3H]-Ifenprodil binding, rat brain membranes, Hill-plot 2-parameter-model
Would you mind telling me the reported pIC50 of each entry?
// scale note: pIC50 = -log10(conc_M); give the bare number

Which pIC50 is listed for `Cc1ncnn1Cc1cn(-c2ccc(Cl)cc2)nn1` ?
4.84

Would you mind doing `CC(F)(F)c1cc(-n2cc(Cn3ccnc3N)nn2)ccc1F` as well?
9.29

Next record, please: `Cc1cc(-n2cc(Cn3ccnc3CCF)nn2)ccc1Cl`
7.87

Moving on to the next compound: `OCCc1nccn1Cn1cc(-c2ccc(S(F)(F)(F)(F)F)cc2)nn1`
6.58

# repeat for `Cc1nccn1Cc1cn(-c2cccc(OC(F)(F)F)c2)nn1`
8.14

Same thing, different compound: `Cc1nccn1Cc1cn(-c2ccc(F)c(C(F)F)c2)nn1`
8.42

Next record, please: `CCCCc1nccn1Cc1cn(-c2ccc(Cl)cc2)nn1`
7.41

----------
- experimental target: cloned human NR1/NR2B ion channels (Homo sapiens (Human), UniProt Q05586+Q13224)
- Sequence (Q13224 27-1484, other chains not shown): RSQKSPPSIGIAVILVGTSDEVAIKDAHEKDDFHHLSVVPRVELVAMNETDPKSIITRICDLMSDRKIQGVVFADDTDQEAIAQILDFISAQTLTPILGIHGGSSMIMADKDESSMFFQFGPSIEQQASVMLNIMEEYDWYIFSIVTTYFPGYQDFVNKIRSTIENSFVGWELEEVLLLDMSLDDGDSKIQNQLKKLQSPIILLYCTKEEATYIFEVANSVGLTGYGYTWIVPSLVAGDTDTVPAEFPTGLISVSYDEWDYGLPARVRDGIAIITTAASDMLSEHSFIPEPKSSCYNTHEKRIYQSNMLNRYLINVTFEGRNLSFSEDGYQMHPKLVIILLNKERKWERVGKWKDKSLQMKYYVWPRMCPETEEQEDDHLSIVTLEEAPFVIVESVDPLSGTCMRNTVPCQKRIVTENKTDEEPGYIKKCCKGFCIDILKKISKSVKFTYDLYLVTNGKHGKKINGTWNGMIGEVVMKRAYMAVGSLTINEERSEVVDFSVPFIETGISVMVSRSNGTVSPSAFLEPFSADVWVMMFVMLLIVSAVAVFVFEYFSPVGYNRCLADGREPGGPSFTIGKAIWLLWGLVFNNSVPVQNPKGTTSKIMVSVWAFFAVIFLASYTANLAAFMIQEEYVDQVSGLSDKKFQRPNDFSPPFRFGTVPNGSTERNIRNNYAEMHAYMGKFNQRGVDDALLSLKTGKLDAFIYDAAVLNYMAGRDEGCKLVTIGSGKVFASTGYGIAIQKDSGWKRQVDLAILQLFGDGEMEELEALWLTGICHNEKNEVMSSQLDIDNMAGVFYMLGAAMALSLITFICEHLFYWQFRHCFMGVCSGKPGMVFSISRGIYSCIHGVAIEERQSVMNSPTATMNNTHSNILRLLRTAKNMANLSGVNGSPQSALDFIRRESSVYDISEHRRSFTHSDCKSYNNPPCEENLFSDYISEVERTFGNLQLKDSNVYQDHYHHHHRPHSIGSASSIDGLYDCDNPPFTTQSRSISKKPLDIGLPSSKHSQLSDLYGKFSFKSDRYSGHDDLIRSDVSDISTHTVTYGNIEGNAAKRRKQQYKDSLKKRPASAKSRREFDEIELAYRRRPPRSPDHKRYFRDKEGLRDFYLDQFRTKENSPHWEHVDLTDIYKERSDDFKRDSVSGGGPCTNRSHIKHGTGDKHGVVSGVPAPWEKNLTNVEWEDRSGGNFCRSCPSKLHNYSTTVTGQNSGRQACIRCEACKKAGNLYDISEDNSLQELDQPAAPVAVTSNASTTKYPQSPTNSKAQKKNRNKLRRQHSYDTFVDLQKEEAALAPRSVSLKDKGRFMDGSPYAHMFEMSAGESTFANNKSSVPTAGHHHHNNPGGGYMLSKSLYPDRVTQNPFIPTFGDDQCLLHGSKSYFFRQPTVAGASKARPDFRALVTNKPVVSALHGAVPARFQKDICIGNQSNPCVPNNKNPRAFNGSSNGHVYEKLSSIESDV
- assay overview: HNR2BC: calcium influx assay on cloned human NR1/NR2B ion channels expressed in HEK cells
- experimental conditions: HEK cells hNR1/NR2B, 100 μM glutamate + 100 μM glycine, 3 parameter plot
endpoint name: pIC50
Reminder that pIC50 is minus the log10 of a molar concentration.

Field: pIC50 (cloned human NR1/NR2B ion channels (Homo sapiens (Human), UniProt Q05586+Q13224)). Entry: Cc1nccn1Cc1cn(-c2ccc(F)c(C(F)F)c2)nn1 [Example 81]
5.42

Now this one: Nc1nccn1Cc1cn(-c2ccc(Cl)c(C(F)F)c2)nn1 [Example 113A]
6.08

For Nc1nccn1Cc1cn(-c2cc(F)cc(C(F)F)c2)nn1 [Example 111] then?
5.47

Now this one: Cc1ccc(C(=O)c2nccn2Cc2cn(-c3ccc(Cl)cc3)nn2)cc1 [Example 116]
4.65

Same question for Nc1nccn1Cc1cn(-c2ccc(F)c(C(F)F)c2)nn1 [Example 113B] please.
6.18

----------
- experimental target: rat NR1/NR2B receptor (Rattus norvegicus (Rat), UniProt P35439+Q00960)
- assay overview: RRNR2BB: inhibition of specific binding to the rat NR1/NR2B receptor
- experimental conditions: [3H]-Ifenprodil binding, rat brain membranes, Hill-plot 2-parameter-model
pIC50: −log10 of the molar value.
Returns one of satisfied or not satisfied; satisfied when pIC50 is >= 7.

Please check the record CC(C)(C)c1nccn1Cc1cn(-c2ccc(Cl)c(Cl)c2)nn1 [Example 38] and state if its pIC50 is at or above 7.
not satisfied

Moving on to the next compound: Cc1nccn1Cc1cn(-c2ccc(Cl)cc2Cl)nn1 [Example 49]
not satisfied

Subsequent entry: CCCc1nccn1Cc1cn(-c2ccc(Cl)cc2)nn1 [Example 18]
satisfied

Another compound to check: OCc1nccn1Cc1cn(-c2ccc(Cl)cc2)nn1 [Example 28]
not satisfied

Quick one: CC(C)(C)c1ncnn1Cc1cn(-c2ccc(Cl)cc2)nn1 [Example 19]
not satisfied

Now consider FC(F)c1cc(-n2cc(Cn3ccnc3C3CC3)nn2)ccc1Cl [Example 90] and answer again.
satisfied

Moving on to the next compound: Cc1nccn1Cc1cn(-c2ccc(F)c(Cl)c2)nn1 [Example 51]
satisfied

Check Cc1ccc(-n2cc(Cn3ccnc3C)nn2)cc1F [Example 53] too.
satisfied

From: patent US9981950B2
